biological target: T1, purified recombinant MHC II protein, allele DRB1*0701 (human); experiment: MHC II competition binding assay
T1 construct: bought from Benaroya Research Institute; also called MHC-II DR molecule
Measured IC50 values are reported for all entries that follow.

binder: DHVKAGQIIGWSGSTGY (synthetic mutated peptide of the lysostaphin catalytic domain; also called Y93H) [cluster 4 peptide with Tyr93His]
IC50 / µM: 182

binder: DYVKAGQIIGWSGSTGY [cluster 4 wild-type (C4WT) epitope peptide]
IC50 / µM: 92.9

binder: DHVEAGQIIGWSGSTGY (synthetic mutated peptide of the lysostaphin catalytic domain; also called 93_95) [cluster 4 peptide with Tyr93His/Lys95Glu]
IC50 / µM: 24.9

binder: DHVEAGQQIGWSGSTGY (synthetic mutated peptide of the lysostaphin catalytic domain; also called 939599) [cluster 4 peptide with Tyr93His/Lys95Glu/Ile99Gln]
IC50 / µM: 179

binder: DYVKAGQQIGWSGSTGY (synthetic mutated peptide of the lysostaphin catalytic domain; also called I99Q) [cluster 4 peptide with Ile99Gln]
IC50 / µM: 93.1

binder: DHVKAGQQIGWSGSTGY (synthetic mutated peptide of the lysostaphin catalytic domain; also called 93_99) [cluster 4 peptide with Tyr93His/Ile99Gln]
IC50 / µM: 60.5

binder: DYVEAGQIIGWSGSTGY (synthetic mutated peptide of the lysostaphin catalytic domain; also called K95E) [cluster 4 peptide with Lys95Glu]
IC50 / µM: 4.81

binder: DYVEAGQQIGWSGSTGY (synthetic mutated peptide of the lysostaphin catalytic domain; also called 95-99) [cluster 4 peptide with Lys95Glu/Ile99Gln]
IC50 / µM: 104
